System: intracellular proteome of ENR+CD and ENR organoids
assay_overview: LC-MS/MS TMT proteomics of ENR+CD versus ENR organoids
Assay type: cell-based, C57BL/6 mice
particulars: protein abundance ratio ENR+CD versus ENR organoids, sample pair M1-2; LC-MS/MS TMT proteomics
Exercise: for every item that follows, state its recorded M1-2 Log2 Median Normalized.
Numbers only.

{"columns": ["molecule", "M1-2 Log2 Median Normalized"],
 "data": [
  ["Q9D8W7 (protein, UniProt Q9D8W7 1-154, looked up, full-length) MASVSTHGNQEKSPHLPPLSKQSLLFCPKSKLHIHRGEIAKIIRECQEESFWKRALPFSLISMLVTQGLVHQGYLAANPRFGSLPKVALAGLLGFGLGKASYIRVCQSKFHSFEDQLRGAGFGPEHNRHCLLTCEDCKTRRGLSEKAGSQPSAS", "−1.182"]
]}

Problem: For Q99M54 (protein, UniProt Q99M54 1-266, looked up, full-length) MGSTQSVSGTPARPLPRNKQVARVADPRSPSAGIQRTPIQVESSPQPSLPAEQLNGLKQAQDPDPRSPTLGIARTPMKISGPDPQCSLVKELSEVLETEASESISSPELALPRETPLFYDLDLSSDPQLSPEDQLLPWSQAELDPKQVFTKEEAKQSAETIAASQNSDKPSRDPETPQSSGSKRSRRKANSKVLGRSPLTILQDDNSPGTLTLRQGKRPSALSENVKDLKEGVVLGTGRFLKAGGGAREPNQDHDKENQHFALLES , what is its reported M1-2 Log2 Median Normalized?
Result: −1.488

Attribution: patent US11994512B2
